Test system: Escherichia coli
Assay: Antibacterial activity against Escherichia coli 12140 infected in sc dosed mouse administered at 1 to 5 hrs measured for 3 days
Format: functional
Conditions: Escherichia coli, 12140, sc; read-out: PD50
Property: ED50; scope: individual compounds
measuredMetric: ED50 (mg/kg)

>>> reportedresult("CC(=O)OCC1=C(C(=O)[O-])N2C(=O)[C@@H](NC(=O)C(NC(=O)COCC(=O)[O-])c3ccccc3)[C@H]2SC1.[Na+].[Na+] (stereo partly drawn)")
21.5
>>> reportedresult("Cn1nnnc1SCC1=C(C(=O)O)N2C(=O)[C@@H](NC(=O)C(N)c3ccccc3)[C@H]2SC1 (stereo partly drawn)")
1.4
>>> reportedresult("Cn1nnnc1SCC1=C(C(=O)[O-])N2C(=O)[C@@H](NC(=O)C(NC(=O)[C@H]3C[C@H]3C(=O)[O-])c3ccccc3)[C@H]2SC1.[Na+].[Na+] (mixture of isomers)")
25

---

Test system: Escherichia coli
Test: Antibacterial activity against Escherichia coli 12140 infected in sc dosed mouse administered at 1 to 5 hrs measured for 3 days
Format: functional
Settings: Escherichia coli, 12140, sc; read-out: PD50
measuredMetric: ED50 (mg/kg)

>>> reportedresult("Cn1nnnc1SCC1=C(C(=O)[O-])N2C(=O)[C@@H](NC(=O)C(NC(=O)CSCC(=O)[O-])c3ccccc3)[C@H]2SC1.[Na+].[Na+] (stereo partly drawn)")
50
>>> reportedresult("Cn1nnnc1SCC1=C(C(=O)[O-])N2C(=O)[C@@H](NC(=O)C(NC(=O)[C@@H]3O[C@@H]3C(=O)[O-])c3ccccc3)[C@H]2SC1.[Na+].[Na+] (mixture of isomers)")
35
>>> reportedresult("Cn1nnnc1SCC1=C(C(=O)[O-])N2C(=O)[C@@H](NC(=O)C(NC(=O)COCC(=O)[O-])c3ccccc3)[C@H]2SC1.[Na+].[Na+] (stereo partly drawn)")
8.7

---

System: Pseudomonas aeruginosa
Experiment: Antibacterial activity against Pseudomonas aeruginosa 1504 assessed as growth inhibition
Assay type: functional
measuredMetric: MIC (µg/mL)

>>> reportedresult("Cn1nnnc1SCC1=C(C(=O)[O-])N2C(=O)[C@@H](NC(=O)C(NC(=O)[C@@H]3O[C@@H]3C(=O)[O-])c3ccccc3)[C@H]2SC1.[Na+].[Na+] (mixture of isomers)")
500
>>> reportedresult("Cn1nnnc1SCC1=C(C(=O)[O-])N2C(=O)[C@@H](NC(=O)C(NC(=O)COCC(=O)[O-])c3ccccc3)[C@H]2SC1.[Na+].[Na+] (some centres undefined)")
125
>>> reportedresult("Cn1nnnc1SCC1=C(C(=O)[O-])N2C(=O)[C@@H](NC(=O)C(NC(=O)C3CO3)c3ccccc3)[C@H]2SC1.[Na+] (mixture of isomers)")
500
>>> reportedresult("Cn1nnnc1SCC1=C(C(=O)[O-])N2C(=O)[C@@H](NC(=O)C(NC(=O)C3CCC(C(=O)[O-])O3)c3ccccc3)[C@H]2SC1.[Na+].[Na+] (mixture of isomers)")
63
>>> reportedresult("CC1(C)S[C@@H]2[C@H](NC(=O)C(C(=O)O)c3ccccc3)C(=O)N2[C@H]1C(=O)O (some centres undefined)")
63
>>> reportedresult("Cn1nnnc1SCC1=C(C(=O)[O-])N2C(=O)[C@@H](NC(=O)C(NC(=O)C3OC3C(=O)[O-])c3ccccc3)[C@H]2SC1.[Na+].[Na+] (mixture of isomers)")
63
>>> reportedresult("Cn1nnnc1SCC1=C(C(=O)[O-])N2C(=O)[C@@H](NC(=O)C(NC(=O)[C@H]3C[C@H]3C(=O)[O-])c3ccccc3)[C@H]2SC1.[Na+].[Na+] (mixture of isomers)")
125
>>> reportedresult("Cn1nnnc1SCC1=C(C(=O)[O-])N2C(=O)[C@@H](NC(=O)C(NC(=O)CSCC(=O)[O-])c3ccccc3)[C@H]2SC1.[Na+].[Na+] (some centres undefined)")
500
